meta.source: ChEMBL document CHEMBL3745627

# Target Or System: Vitamin D3 receptor (Rattus norvegicus, UniProt P13053)
# Sequence (P13053 whole entry): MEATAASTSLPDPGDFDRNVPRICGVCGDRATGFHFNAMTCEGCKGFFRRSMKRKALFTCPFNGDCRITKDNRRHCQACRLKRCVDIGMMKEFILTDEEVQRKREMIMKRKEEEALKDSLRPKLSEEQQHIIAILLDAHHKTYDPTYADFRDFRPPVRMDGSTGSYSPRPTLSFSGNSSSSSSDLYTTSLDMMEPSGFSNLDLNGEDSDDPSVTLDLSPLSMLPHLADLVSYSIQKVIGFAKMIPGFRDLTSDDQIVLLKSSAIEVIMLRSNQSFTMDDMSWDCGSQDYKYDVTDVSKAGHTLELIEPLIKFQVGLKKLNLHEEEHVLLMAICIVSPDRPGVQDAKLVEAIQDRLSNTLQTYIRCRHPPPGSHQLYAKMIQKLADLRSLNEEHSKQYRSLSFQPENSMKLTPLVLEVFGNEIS
# Test Protocol: Displacement of [3H]1alpha,25-(OH)2D3 from full-length recombinant rat VDR by scintillation counter
Observation Type: Ki (nM)

| Structure As Smiles | Target Or System | Observation Type | Readout Value |
| --- | --- | --- | --- |
| C=C1[C@H](O)CC(=C/C=C2\CCC[C@]3(C)[C@@H]([C@@H](C)CCC(F)(F)C(C)(C)O)CC[C@@H]23)C[C@H]1O | Vitamin D3 receptor (Rattus norvegicus, UniProt P13053) | Ki | 0.03 |
| C=C1[C@H](O)CC(=C/C=C2\CCC[C@]3(C)[C@@H]([C@H](C)CCCC(C)(C)O)CC[C@@H]23)C[C@H]1O | Vitamin D3 receptor (Rattus norvegicus, UniProt P13053) | Ki | 0.03 |
| C[C@@H](CCC(F)(F)C(C)(C)O)[C@H]1CC[C@H]2/C(=C/C=C3C[C@@H](O)C[C@H](O)C3)CCC[C@]12C | Vitamin D3 receptor (Rattus norvegicus, UniProt P13053) | Ki | 0.03 |
| C[C@H](CCC(F)(F)C(C)(C)O)[C@H]1CC[C@H]2/C(=C/C=C3C[C@@H](O)C[C@H](O)C3)CCC[C@]12C | Vitamin D3 receptor (Rattus norvegicus, UniProt P13053) | Ki | 0.02 |
| C=C1[C@H](O)CC(=C/C=C2\CCC[C@]3(C)[C@@H]([C@H](C)CCC(F)(F)C(C)(C)O)CC[C@@H]23)C[C@H]1O | Vitamin D3 receptor (Rattus norvegicus, UniProt P13053) | Ki | 0.04 |
